system: Plasmodium falciparum; assay: NOVARTIS: Inhibition of Plasmodium falciparum 3D7 (drug-susceptible) proliferation in erythrocyte-based infection assay; format: functional, organism-based; conditions: Plasmodium falciparum, 3D7
pEC50: −log10 of the molar value.
Threshold rule: pEC50 greater than or equal to 7 is MET; below that, NOT MET.

Ask: In plain terms: is recorded pEC50 at least 7 for CCCOC(=O)C1=C(C)NC2=C(C(=O)CC(c3ccc(OC)cc3)C2)C1c1ccc(Cl)cc1Cl (stereo not given) ?
Result: MET

Ask: In plain terms: is recorded pEC50 at least 7 for c1ccc(-c2cc(NCCCN3CCOCC3)nc(-c3ccccn3)n2)nc1 ?
Result: NOT MET

Ask: In plain terms: is recorded pEC50 at least 7 for Cn1c(C(=O)c2cccc3ccccc23)nc2ccccc21 ?
Result: MET

Ask: In plain terms: is recorded pEC50 at least 7 for Cc1cc(Nc2ccc(C)c(Cl)c2)n2ncnc2n1 ?
Result: NOT MET

Ask: In plain terms: is recorded pEC50 at least 7 for NCC(c1ccc(F)cc1)c1ccc(F)cc1 ?
Result: NOT MET

Ask: In plain terms: is recorded pEC50 at least 7 for O=C(O)c1ccc(NC(=O)c2ccc(N3C(=O)C4C5C=CC(C5)C4C3=O)cc2)cc1 (stereo not given) ?
Result: NOT MET

Ask: In plain terms: is recorded pEC50 at least 7 for N=c1n(Cc2ccccc2)c2ccccc2n1CC(O)c1ccc(Cl)cc1 (stereo not given) ?
Result: NOT MET

Ask: In plain terms: is recorded pEC50 at least 7 for COC(=O)[C@@H]1C[C@H](NC(=O)c2[nH]c3ccc(Cl)cc3c2-c2ccccc2)CN1Cc1cc(OC)cc(OC)c1 ?
Result: NOT MET

Ask: In plain terms: is recorded pEC50 at least 7 for CN1CCN(C(=O)c2cccc(-c3nc(-c4ccncc4)cnc3N)c2)CC1 ?
Result: NOT MET

====

assay: NOVARTIS: Cytotoxicity against human hepatocellular carcinoma cell line (Huh7); type: toxicity, cell-based, Huh-7; settings: Huh7 cells (hepatocellular carcinoma cell line)
Give CC50 for every item shown.

Ask: Note down CC50 recorded for CCOC(=O)c1ccc2nc(C)cc(Nc3ccc(N4CCCCC4)cc3)c2c1
Result: 21.2 µM

Ask: Note down CC50 recorded for COc1ccc2cc(C)c3nnc(SCC(=O)N4CCN(C(=O)c5ccco5)CC4)n3c2c1
Result: > 100 µM

Ask: Note down CC50 recorded for CCN(CC)c1ccc(NC(=O)c2cccs2)cc1
Result: > 100 µM

Ask: Note down CC50 recorded for Cc1ccc2[nH]c3c(NCCN(C)C)ncnc3c2c1
Result: 29.6 µM

Ask: Note down CC50 recorded for CCC(=O)OC(C(C)C(=O)O)C(C)C1OC2(CCC(C)(C3CCC(C)(C4OC(C5OC(O)(CO)C(C)CC5C)CC4C)O3)O2)CC(O)C1C (centres undefined)
Result: > 6.25 µM

Ask: Note down CC50 recorded for Cc1cccc(Nc2ccccc2C(=O)OCC(=O)N2CC(=O)Nc3ccccc32)c1C
Result: 55.1 µM

Ask: Note down CC50 recorded for CCOC(=O)c1c[nH]c2c(CC)cccc2c1=O
Result: > 100 µM

Ask: Note down CC50 recorded for Fc1ccc(C2(CCCSc3nnc4c(n3)[nH]c3ccccc34)OCCO2)cc1
Result: > 100 µM

Ask: Note down CC50 recorded for COCCNC(=O)[C@@H]1C[C@@H](Sc2nc3ccccc3[nH]2)CN1Cc1ccc2ccccc2c1
Result: > 100 µM

Ask: Note down CC50 recorded for Cc1cccc(NC(c2cccc(Cl)c2)c2ccc3cccnc3c2O)n1 (centres undefined)
Result: > 62.4 µM

Ask: Note down CC50 recorded for NC12CC3CC(C1)CC(SSC14CC5CC(CC(N)(C5)C1)C4)(C3)C2
Result: 1.96 µM

Ask: Note down CC50 recorded for CCCN(CCC)S(=O)(=O)c1cc(Br)cc2c1N(C(C)=O)CC2
Result: > 100 µM

Ask: Note down CC50 recorded for COc1ccc(C)cc1Nc1nc(N)c2cc(OC)c(OC)cc2n1
Result: > 10 µM

Ask: Note down CC50 recorded for CCCN1CCC(N2C[C@@H](NCc3cc(C)ccc3C)C[C@H]2C(=O)NCCc2ccc3c(c2)OCO3)CC1
Result: 4.2 µM

Ask: Note down CC50 recorded for Nc1nc(N)c2cc(S(=O)(=O)N3CCCCC3)ccc2n1
Result: 2.67 µM

Ask: Note down CC50 recorded for O=C(Nc1ccc(F)c(F)c1)c1ccccc1[N+](=O)[O-]
Result: > 10 µM

Ask: Note down CC50 recorded for CC[n+]1c(C=C2C=C(C)CC(C)C2)sc2ccccc21 (centres undefined)
Result: > 100 µM

Ask: Note down CC50 recorded for Cc1ccccc1NC(=O)N1CCN(C(=O)c2nc(-c3ccccc3)nc(C)c2C(=O)OC(C)C)CC1C (centres undefined)
Result: 51.9 µM

Ask: Note down CC50 recorded for Cc1cc(C(=O)Nc2cnn(Cc3ccc(Cl)cc3Cl)c2)no1
Result: > 100 µM

Ask: Note down CC50 recorded for CC1=C(C(=O)OC2CCCC2)C(c2ccc(Cl)cc2)C2=C(CC(c3ccc(Cl)cc3)CC2=O)N1 (centres undefined)
Result: > 100 µM

Ask: Note down CC50 recorded for CC1OC(=O)C(C(C)C)NC(=O)C(C(C)C)OC(=O)C(C(C)C)NC(=O)C(C)OC(=O)C(C(C)C)NC(=O)C(C(C)C)OC(=O)C(C(C)C)NC(=O)C(C)OC(=O)C(C(C)C)NC(=O)C(C(C)C)OC(=O)C(C(C)C)NC1=O (centres undefined)
Result: > 10 µM

Ask: Note down CC50 recorded for COC(=O)c1cccc(-c2cc(Cl)c3c(c2)CC(CNC(=O)c2c(C)noc2C)O3)c1 (centres undefined)
Result: 75.9 µM

Ask: Note down CC50 recorded for N#Cc1cc(Oc2ccc(-c3cnc4ccccc4n3)cc2)nc2ccccc12
Result: > 100 µM

Ask: Note down CC50 recorded for CCOC(=O)c1c(NC(C)=O)sc2c(O)c(CNC3CCCCC3)ccc12
Result: > 100 µM

Ask: Note down CC50 recorded for CSc1nc(N)c2c3c(sc2n1)CCCC3
Result: > 10 µM

Ask: Note down CC50 recorded for CCC(NC1CCCCC1)c1nc2ccccc2c(=O)n1C (centres undefined)
Result: > 10 µM

Ask: Note down CC50 recorded for COc1cc(C(c2c(C)n(C)n(-c3ccccc3)c2=O)c2c(C)n(C)n(-c3ccccc3)c2=O)cc(Cl)c1OCc1ccccc1
Result: 38.3 µM

Ask: Note down CC50 recorded for Cc1sc2nc(C3CC3)n(C3CCN(C(=O)C4CC=CCC4)CC3)c(=O)c2c1C (centres undefined)
Result: > 10 µM

Ask: Note down CC50 recorded for CCCN1CCc2c(sc3nc(SC)n(-c4ccccc4)c(=O)c23)C1
Result: > 100 µM

Ask: Note down CC50 recorded for Cc1ccn2c(NC(C)(C)CC(C)(C)C)c(-c3ccccc3OC(=O)c3cccc(F)c3)nc2c1
Result: > 10 µM

Ask: Note down CC50 recorded for Cn1c(C(OCC(=O)N2CCN(Cc3ccccc3)CC2)c2cccnc2)cc2ccccc21 (centres undefined)
Result: 38.1 µM

Ask: Note down CC50 recorded for c1ccc(C2CC(C3CC(c4ccccc4)OC(c4ccccc4)C3)CC(c3ccccc3)O2)cc1 (centres undefined)
Result: > 10 µM

Ask: Note down CC50 recorded for COc1ccc(CCNC2(Cc3ccccc3)CC(C)N(C)CC2C)cc1OC (centres undefined)
Result: 42.7 µM

Ask: Note down CC50 recorded for OC(CN1CCN(Cc2ccccc2)CC1)Cn1c2ccc(Br)cc2c2cc(Br)ccc21 (centres undefined)
Result: 29 µM

Ask: Note down CC50 recorded for CCN1CCN(Cc2ccc(-c3cc4c(N[C@H](C)c5ccccc5)ncnc4[nH]3)cc2)CC1 [AEE-788]
Result: 27.8 µM

Ask: Note down CC50 recorded for CN1CCN(N/C=C2/C(=O)N(c3nc4ccccc4s3)N=C2c2ccccc2)CC1
Result: > 10 µM

Ask: Note down CC50 recorded for CCCCNC(=O)NC(Cc1c[nH]c2ccccc12)C(=O)NC1CCCCC1 (centres undefined)
Result: > 2.02 µM

Ask: Note down CC50 recorded for c1ccc(Oc2ccc(Nc3nc4nonc4nc3Nc3ccc(Oc4ccccc4)cc3)cc2)cc1
Result: > 10 µM

Ask: Note down CC50 recorded for CC[n+]1c(C=C2C=CN(C)C=C2)ccc2cc(C)ccc21
Result: > 26.8 µM

====

assay: NOVARTIS: Cytotoxicity against human hepatocellular carcinoma cell line (Huh7); format: toxicity, cell-based, Huh-7; conditions: Huh7 cells (hepatocellular carcinoma cell line)
READOUT: CC50

Ask: Note down CC50 recorded for COC(=O)C1=C(C)NC2=C(C(=O)CC(c3ccc(OC)c(OC)c3)C2)C1c1ccc([N+](=O)[O-])cc1 (stereo not given)
Result: > 100 µM

Ask: Note down CC50 recorded for COc1cc(C2C3=C(CC(C)(C)CC3=O)Nc3ccccc3N2C(=O)C(C)C)cc(OC)c1OC (stereo not given)
Result: > 10 µM

Ask: Note down CC50 recorded for Clc1ccc(C[n+]2cc(-c3ccccc3)n3c2CCC3)cc1Cl
Result: > 55.7 µM

Ask: Note down CC50 recorded for N#CCCN(CC1CCCO1)C(=O)Nc1ccc(Cl)c(C(F)(F)F)c1 (stereo not given)
Result: > 10 µM

Ask: Note down CC50 recorded for CCOC(=O)C1CCN(C(=O)c2cc(C(C)(C)C)nn2Cc2ccc(Cl)cc2Cl)CC1
Result: > 100 µM

Ask: Note down CC50 recorded for CN(C)c1ccc(-c2n(C)c3ccccc3[n+]2C)cc1
Result: > 100 µM

Ask: Note down CC50 recorded for CCNc1nc(OC)nc(Oc2ccc(=O)n(-c3ccccc3)n2)n1
Result: > 100 µM

Ask: Note down CC50 recorded for CCN1C(=O)NC(c2cccc(NC(=O)Nc3cc(C(F)(F)F)cc(C(F)(F)F)c3)c2)C(C(=O)OC(C)C)=C1C (stereo not given)
Result: 35.3 µM

Ask: Note down CC50 recorded for CCCCCCCCCC[n+]1c(C)n(CC)c2cc(Cl)c(Cl)cc21
Result: 21 µM

Ask: Note down CC50 recorded for O=C(Nc1nc2ccccc2s1)c1ccc(S(=O)(=O)N2CCOCC2)cc1
Result: > 10 µM
